- Tested on: U251 human glioblastoma cell line
- Test details: in vitro FM-HCR assay of MGMT activity (mPlum O^6MeG reporter plasmid)
- Type: cell-based
- Test conditions: DMSO condition; relative to wild-type MGMT in same condition
Item-by-item account of MGMT activity (% of WT) DMSO

Molecule	MGMT activity (% of WT) DMSO
G160A: MGMT polypeptide with mutation G160A (protein) MDKDCEMKRTTLDSPLGKLELSGCEQGLHEIKLLGKGTSAADAVEVPAPAAVLGGPEPLMQCTAWLNAYFHQPEAIEEFPVPALHHPVFQQESFTRQVLWKLLKVVKFGEVISYQQLAALAGNPKAARAVGGAMRGNPVPILIPCHRVVCSSGAVGNYSAGLAVKEWLLAHEGHRLGKPGLGGSSGLAGAWLKGAGATSGSPPAGRN	119.4 % of WT
G156A: MGMT polypeptide with mutation G156A (protein) MDKDCEMKRTTLDSPLGKLELSGCEQGLHEIKLLGKGTSAADAVEVPAPAAVLGGPEPLMQCTAWLNAYFHQPEAIEEFPVPALHHPVFQQESFTRQVLWKLLKVVKFGEVISYQQLAALAGNPKAARAVGGAMRGNPVPILIPCHRVVCSSGAVANYSGGLAVKEWLLAHEGHRLGKPGLGGSSGLAGAWLKGAGATSGSPPAGRN	57.4 % of WT
